Cited source for all entries: patent US9024041B2

- TARGET_ENTITY: p38 MAPKα isoform (MAPK14: Invitrogen) (Homo sapiens, UniProt Q16539)
- Construct: purchased Invitrogen
- Sequence (Q16539 whole entry, canonical isoform): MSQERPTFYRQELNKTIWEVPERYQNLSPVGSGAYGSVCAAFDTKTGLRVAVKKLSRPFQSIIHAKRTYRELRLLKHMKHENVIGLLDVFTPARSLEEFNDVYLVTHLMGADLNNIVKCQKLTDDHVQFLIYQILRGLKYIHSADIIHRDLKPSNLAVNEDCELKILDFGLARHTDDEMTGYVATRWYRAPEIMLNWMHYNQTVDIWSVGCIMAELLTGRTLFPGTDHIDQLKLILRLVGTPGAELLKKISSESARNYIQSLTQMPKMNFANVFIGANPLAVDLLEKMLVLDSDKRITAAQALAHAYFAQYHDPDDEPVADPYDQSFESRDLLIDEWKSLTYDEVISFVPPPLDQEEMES
- PROCEDURE_TEXT: p38 MAPKα enzyme inhibition assay (FRET, Z-LYTE, via MAPKAP-K2 activation)
- Type: biochemical
- EXPERIMENTAL_PARAMETERS: 2 hr pre-incubation, ATP 10.0 μM; read-out: Enzyme Inhibition IC50 p38α
pIC50: −log10 of the molar value.
PROPERTY_NAME: pIC50

compound="COCC(=O)Nc1cc(Oc2ccc(NC(=O)Nc3cc(C4(C)CCCCC4)nn3-c3ccc(C)cc3)c3ccccc23)ccn1 [Example 26]" property_name=pIC50 result_number=7.32

(A) COc1ccc(-n2nc(C(C)(C)C)cc2NC(=O)Nc2ccc(Oc3ccnc(NC(=O)NC4CC4)c3)c3ccccc23)cc1 [Example 6]
(B) COCC(=O)Nc1cc(Oc2ccc(NC(=O)Nc3cc(C(C)(C)C)nn3-c3ccc(O)c(Cl)c3)c3ccccc23)ccn1 [Example 52]
Incoming: # returns the entry with the larger pIC50; inputs A and B Write the label of whichever entry you select.
Outgoing: B
(B: 8.72, A: 7.75)
